Target: T1, EsCas13d, nuclease-dead (Eubacterium siraeum, UniProt B0MS50, R295A;H300A;R849A;H854A)
T1 sequence: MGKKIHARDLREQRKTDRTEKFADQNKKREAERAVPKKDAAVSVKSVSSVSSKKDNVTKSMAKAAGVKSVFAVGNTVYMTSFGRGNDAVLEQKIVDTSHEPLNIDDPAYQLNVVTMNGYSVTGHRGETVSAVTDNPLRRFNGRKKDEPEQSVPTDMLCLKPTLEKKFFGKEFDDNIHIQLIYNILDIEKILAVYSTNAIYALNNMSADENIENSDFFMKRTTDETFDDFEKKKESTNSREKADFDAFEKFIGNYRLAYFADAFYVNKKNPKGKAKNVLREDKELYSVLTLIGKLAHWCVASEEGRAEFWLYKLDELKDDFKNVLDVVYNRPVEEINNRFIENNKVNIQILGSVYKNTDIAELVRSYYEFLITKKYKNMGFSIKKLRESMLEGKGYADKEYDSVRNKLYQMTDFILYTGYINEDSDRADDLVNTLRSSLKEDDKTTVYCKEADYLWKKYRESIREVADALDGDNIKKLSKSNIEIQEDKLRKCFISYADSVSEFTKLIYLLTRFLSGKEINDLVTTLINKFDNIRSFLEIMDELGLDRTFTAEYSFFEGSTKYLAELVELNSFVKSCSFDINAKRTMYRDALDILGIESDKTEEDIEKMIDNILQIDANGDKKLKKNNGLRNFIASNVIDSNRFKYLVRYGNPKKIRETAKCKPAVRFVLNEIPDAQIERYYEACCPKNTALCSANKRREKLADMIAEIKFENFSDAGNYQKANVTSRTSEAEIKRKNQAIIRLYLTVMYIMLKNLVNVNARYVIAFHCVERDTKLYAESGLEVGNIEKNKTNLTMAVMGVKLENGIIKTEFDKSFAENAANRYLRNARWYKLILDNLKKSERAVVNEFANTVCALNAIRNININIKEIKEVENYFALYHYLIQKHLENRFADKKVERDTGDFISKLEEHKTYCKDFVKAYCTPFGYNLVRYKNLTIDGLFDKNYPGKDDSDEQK
Assay: crRNA (strand 1, pre-loaded); Mg2+; 40 mM Tris-HCl pH 7.5, 150 mM NaCl, 6 mM MgCl2, 1 mM DTT, 0.1% Tween-20, 0.2 mg/ml BSA; 25 C; 10 min per concentration, then washed
Conditions: tags: His6-TwinStrep-SUMO cleaved; N-terminal SNAP kept (SNAP-Surface 488); label: 3' end held by stalled T7 RNA polymerase
recorded_endpoint: Kd (nM)

>>> observed("target 1 MT 5'PFS GCU 3'PFS AGC (mixed) RNA 1: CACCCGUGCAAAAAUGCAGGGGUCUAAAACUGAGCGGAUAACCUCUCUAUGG RNA 2: GGGAAUGGAUCCACAUCUACGAAUUCGCUCCAUAGAGAGGUUAUCCGCUCAAGCAGAUCGGAAGAGCACACGU")
36
>>> observed("target 1 insA 3' of 12,insC 3' of 1 (mixed) RNA 1: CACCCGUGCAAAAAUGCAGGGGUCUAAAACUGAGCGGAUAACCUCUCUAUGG RNA 2: GGGAAUGGAUCCACAUCUACGAAUUCGUACCAUAGAGAGGAUUAUCCGCUCACCCGAGAUCGGAAGAGCACACGU")
27.4
